Exercise: for every item that follows, state its recorded IC50.
# Target: Z-AAT (Homo sapiens, UniProt P01009, E366K)
# Construct: Purified Z-AAT protein from human plasma; Vertex Cambridge Sample 4942)
# Sequence (P01009 25-418 E366K): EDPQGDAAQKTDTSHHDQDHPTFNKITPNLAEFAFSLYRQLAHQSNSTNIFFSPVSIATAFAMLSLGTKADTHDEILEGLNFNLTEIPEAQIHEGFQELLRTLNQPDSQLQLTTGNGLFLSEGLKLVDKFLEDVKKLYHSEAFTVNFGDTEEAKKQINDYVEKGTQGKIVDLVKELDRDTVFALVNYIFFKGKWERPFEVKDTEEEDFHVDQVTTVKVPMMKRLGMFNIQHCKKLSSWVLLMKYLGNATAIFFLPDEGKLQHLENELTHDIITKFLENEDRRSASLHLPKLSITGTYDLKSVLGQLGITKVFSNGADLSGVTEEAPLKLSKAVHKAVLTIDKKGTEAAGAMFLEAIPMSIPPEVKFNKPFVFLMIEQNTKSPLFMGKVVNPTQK
# Assay Remarks: Biochemical Assay (Z-AAT Elastase Activity Assay)
# Measurement Conditions: purified Z-AAT protein from human plasma and purified human neutrophil elastase

Solved entries (count: 5):
{"Molecule": "COCC(C)(C)c1c(-c2ccc(C(=O)NCCN3CCN(C)CC3)cc2)c2cc3[nH]ncc3cc2n1-c1ccc(F)cc1 [Compound 211]", "Target": "Z-AAT (Homo sapiens, UniProt P01009, E366K)", "IC50": "> 30 µM"}
{"Molecule": "O=C1NC(=O)C(c2ccc(-c3c(C4CCOCC4)n(-c4ccc(F)cc4)c4cc5cn[nH]c5cc34)cc2)N1 (centres unmarked) [Compound 120]", "Target": "Z-AAT (Homo sapiens, UniProt P01009, E366K)", "IC50": "> 1 µM"}
{"Molecule": "CC(C)c1c(-c2cccc(CC(=O)O)c2)c2cc3[nH]ncc3cc2n1-c1ccc(F)cc1 [Compound 59]", "Target": "Z-AAT (Homo sapiens, UniProt P01009, E366K)", "IC50": "> 1 µM"}
{"Molecule": "COc1cc(-c2c(C3CCOCC3)n(-c3ccc(F)cc3)c3cc4cn[nH]c4cc23)cc(OC)c1OC [Compound 152]", "Target": "Z-AAT (Homo sapiens, UniProt P01009, E366K)", "IC50": "> 30 µM"}
{"Molecule": "CC(C)c1c(-c2ccc(C(=O)O)cc2)c2cc3[nH]ncc3cc2n1-c1ccccc1 [Compound 102]", "Target": "Z-AAT (Homo sapiens, UniProt P01009, E366K)", "IC50": "0.4 to 1 µM"}

Dear reader, for each entry below, please note its IC50.
1. O=C(O)c1ccc(-c2c(C3CCOCC3)n(-c3ccc(F)c(F)c3)c3cc4cn[nH]c4cc23)cc1 [Compound 1]
2. N#CCC1(c2c(-c3ccc(C(=O)O)cc3)c3cc4[nH]ncc4cc3n2-c2ccc(F)cc2)COC1 [Compound 264]
3. COc1cc(C(=O)O)ccc1-c1c(C(C)C)n(-c2ccc(F)cc2)c2cc3cn[nH]c3cc12 [Compound 49]

Solution:
> 1 µM
> 30 µM
> 1 µM

Dear reader, for each entry below, please note its IC50.
1. Cc1n[nH]c2cc3c(-c4ccc(C(=O)O)cc4C#N)c(C4CCOCC4)n(-c4ccc(F)cc4)c3cc12 [Compound 135]
2. COCC(C)(C)c1c(-c2ccc(P(C)(C)=O)nc2)c2cc3[nH]ncc3cc2n1-c1ccc(F)cc1 [Compound 231]
3. COc1cc(-n2c(C(C)(C)CC#N)c(-c3ccc(C(=O)O)cc3)c3cc4[nH]ncc4cc32)ccc1F [Compound 181]
4. Cc1nc(C(=O)O)ccc1-c1c(C(C)C)n(-c2ccc(F)cc2)c2cc3cn[nH]c3cc12 [Compound 74]
5. COCC(C)(C)c1c(-c2ccc(C(=O)NCC(C)(O)CO)cc2)c2cc3[nH]ncc3cc2n1-c1ccc(F)cc1 (centres unmarked) [Compound 229]
6. COCC(C)(C)c1c(-c2ccc(C(=O)N[C@@H]3CCNC3=O)cc2)c2cc3[nH]ncc3cc2n1-c1ccc(F)cc1 [Compound 235]
7. O=c1cc(-c2c(C3CCOCC3)n(-c3ccc(F)cc3)c3cc4cn[nH]c4cc23)cc[nH]1 [Compound 26]
8. Fc1ccc(-n2c(C3CCOCC3)c(-c3ccc4nccn4c3)c3cc4[nH]ncc4cc32)cc1 [Compound 153]

Solution:
1: > 1 µM; 2: > 1 µM; 3: < 0.4 µM; 4: > 1 µM; 5: > 30 µM; 6: > 1 µM; 7: > 30 µM; 8: > 30 µM

Exercise: Which IC50 reading was recorded for the molecule CC(C)(O)Cn1cc(-c2c(C3CCOCC3)n(-c3ccc(F)cc3)c3cc4cn[nH]c4cc23)cn1 [Compound 163] ?
Solution: > 30 µM

---

# Target: NL20 human bronchial epithelial cells expressing human Z-AAT (Homo sapiens, UniProt P01009, E366K)
# Sequence (P01009 25-418 E366K): as above
# Assay Remarks: AAT Function Assay (MSD Assay NL20-SI Cell Line)
# Measurement Conditions: functionally active AAT in supernatant of NL20 cells expressing human Z-AAT, MSD readout; read-out: NL20 Func. (EC50)
Assay Readout: EC50

Solved entries (count: 5):
{"Compound": "COCC(C)(C)c1c(-c2ccc(C(=O)Nc3nnc(S(C)(=O)=O)s3)cc2)c2cc3[nH]ncc3cc2n1-c1ccc(F)cc1", "EC50": "400 to 1000 nM"}
{"Compound": "Fc1ccc(-n2c(C3CCOCC3)c(-c3ccc(OCC(F)(F)F)nc3)c3cc4[nH]ncc4cc32)cc1", "EC50": "> 1000 nM"}
{"Compound": "COCC(C)(C)c1c(-c2ccc(C(=O)N(C)CCS(C)(=O)=O)cc2)c2cc3[nH]ncc3cc2n1-c1ccc(F)cc1", "EC50": "> 1000 nM"}
{"Compound": "CC(C)(CO)c1c(-c2ccc(C(N)=O)cc2)c2cc3[nH]ncc3cc2n1-c1ccc(F)cc1", "EC50": "< 400 nM"}
{"Compound": "CC(C)c1c(-c2ccc(C(=O)O)cc2OC2CCOC2)c2cc3[nH]ncc3cc2n1-c1ccc(F)cc1 (stereo not shown)", "EC50": "< 400 nM"}

Dear reader, for each entry below, please note its EC50.
1. CC(C)Oc1cc(C(=O)O)cc(-c2c(C(C)C)n(-c3ccc(F)cc3)c3cc4cn[nH]c4cc23)c1
2. C[C@H](O)C(=O)N1CC(n2cc(-c3c(C4CCOCC4)n(-c4ccc(F)cc4)c4cc5cn[nH]c5cc34)cn2)C1

Solution:
["< 400 nM", "> 1000 nM"]

---

# Target: Z-AAT (Homo sapiens, UniProt P01009, E366K)
# Construct: Purified Z-AAT protein from human plasma; Vertex Cambridge Sample 4942)
# Assay Remarks: Biochemical Assay (Z-AAT Elastase Activity Assay)
# Measurement Conditions: purified Z-AAT protein from human plasma and purified human neutrophil elastase
Assay Readout: IC50

Solved entries (count: 8):
{"Compound": "COCC(C)(C)c1c(-c2cnn(CCS(C)(=O)=O)c2)c2cc3[nH]ncc3cc2n1-c1ccc(F)cc1", "Reported Value": "> 30 µM"}
{"Compound": "Cc1cc(-c2c(C(C)C)n(-c3ccc(F)cc3)c3cc4cn[nH]c4cc23)cnc1C(=O)O", "Reported Value": "> 1 µM"}
{"Compound": "COCC(C)(C)c1c(-c2cnn(C(C)(C)CO)c2)c2cc3[nH]ncc3cc2n1-c1ccc(F)cc1", "Reported Value": "> 1 µM"}
{"Compound": "COCC(C)(C)c1c(-c2cn(C(C)(C)C(=O)O)nc2C)c2cc3[nH]ncc3cc2n1-c1ccc(F)cc1", "Reported Value": "> 30 µM"}
{"Compound": "Cc1cc(C(=O)O)ccc1-c1c(C2CCOCC2)n(-c2ccc(F)cc2)c2cc3cn[nH]c3cc12", "Reported Value": "> 1 µM"}
{"Compound": "COCC(C)(C)c1c(-c2ccc(C(=O)NCCn3cncn3)cc2)c2cc3[nH]ncc3cc2n1-c1ccc(F)cc1", "Reported Value": "> 1 µM"}
{"Compound": "CC(C)OCc1c(-c2ccc(C(=O)O)cc2)c2cc3[nH]ncc3cc2n1-c1ccc(F)cc1", "Reported Value": "> 30 µM"}
{"Compound": "COCC(C)(C)c1c(-c2ccc(C(=O)N3CCNC(=O)C3)cc2)c2cc3[nH]ncc3cc2n1-c1ccc(F)cc1", "Reported Value": "> 1 µM"}

Dear reader, for each entry below, please note its IC50.
1. CCC(C)c1c(-c2ccc(C(=O)O)cc2)c2cc3[nH]ncc3cc2n1-c1ccc(F)cc1 (stereo not shown)
2. Fc1ccc(-n2c(C3CCOCC3)c(-c3cnn(C4COC4)c3)c3cc4[nH]ncc4cc32)cc1

Solution:
1. 0.4 to 1 µM
2. > 1 µM

---

# Target: Z-AAT (Homo sapiens, UniProt P01009, E366K)
# Construct: Purified Z-AAT protein from human plasma; Vertex Cambridge Sample 4942)
# Assay Remarks: Biochemical Assay (Z-AAT Elastase Activity Assay)
# Measurement Conditions: purified Z-AAT protein from human plasma and purified human neutrophil elastase
Exercise: for every item that follows, state its recorded IC50.

Solved entries (count: 5):
{"Item Smiles": "CC(C)(CC#N)c1c(-c2ccc(C(=O)O)cc2)c2cc3[nH]ncc3cc2n1Cc1ccccc1F", "Reported Value": "> 1000 nM"}
{"Item Smiles": "C[C@H](O)C(=O)N1CC(n2cc(-c3c(C4CCOCC4)n(-c4ccc(F)cc4)c4cc5cn[nH]c5cc34)cn2)C1", "Reported Value": "> 30000 nM"}
{"Item Smiles": "C[Si](C)(C)c1c(-c2ccc(C(=O)O)cc2)c2cc3[nH]ncc3cc2n1-c1ccc(F)cc1", "Reported Value": "400 to 1000 nM"}
{"Item Smiles": "CC(C)(CC#N)c1c(-c2ccc(C(=O)O)cc2)c2cc3[nH]nnc3cc2n1-c1ccc(F)cc1", "Reported Value": "> 30000 nM"}
{"Item Smiles": "N#CCC1(c2c(-c3ccc(C(=O)O)cc3)c3cc4[nH]ncc4cc3n2Cc2ccccc2F)CCC1", "Reported Value": "> 30000 nM"}

Dear reader, for each entry below, please note its IC50.
1. COCC(C)(C)c1c(-c2ccc(C(=O)O)nc2OC2CCC2)c2cc3[nH]ncc3cc2n1-c1ccc(F)cc1
2. COCC1(c2c(-c3ccc(C(=O)O)cc3)c3cc4[nH]ncc4cc3n2-c2ccc(F)cc2)CCC1
3. Oc1ccc(-c2c(C3CCOCC3)n(-c3ccc(F)cc3)c3cc4cn[nH]c4cc23)cc1C(F)(F)F

Solution:
1: > 1000 nM; 2: > 1000 nM; 3: > 30000 nM

Exercise: Which IC50 reading was recorded for the compound `[2H]c1n[nH]c2cc3c(-c4ccc(C(=O)O)cc4)c(C4CCOCC4)n(-c4ccc(F)cc4)c3cc12` ?
Solution: > 1000 nM
